# MEASUREMENT_NOTES: Cmax in human CSF at 1000 mg, po bid administered for 8 weeks
# Type: ADME, organism-based, Cerebrospinal fluid
# Design: dose 1000 mg, time 8 weeks, route po
EXPERIMENTAL_READOUT: Cmax (µM)
// units = µM; emit number, no label

Record "CN(C)C(=N)N=C(N)N" , field Cmax: 0.741

----------
# MEASUREMENT_NOTES: Efflux ratio in dog MDCK-MDR1 cells
# Format: ADME, cell-based, Canis lupus familiaris
EXPERIMENTAL_READOUT: efflux ratio
Respond numerically, and do not add a unit to the figure.

Record "C[C@@H]1C[C@@H](NC(=O)c2ncc(-c3cccc(C#N)c3)o2)CN1C#N" , field efflux ratio: 23

----------
# MEASUREMENT_NOTES: Cmax in rat at 3 mg/kg, iv
# Format: ADME, organism-based
# Parameters: dose 3 mg/kg, route iv
# COND: in vivo
EXPERIMENTAL_READOUT: Cmax (nM)
// units = nM; emit number, no label

Record CN(CCOc1ccc(CC2SC(=O)NC2=O)cc1)c1ccccn1 (stereo unspecified) [ROSIGLITAZONE] , field Cmax: 2960

----------
# MEASUREMENT_NOTES: Drug concentration in brain of mouse at 400 mg/kg, po qd
# Format: ADME, organism-based
# COND: in vivo, read-out: Ct
EXPERIMENTAL_READOUT: concentration (µM)
// units = µM; emit number, no label

Record c1coc(CNc2ncnc3[nH]cnc23)c1 [KINETIN] , field concentration: 2.97

----------
# MEASUREMENT_NOTES: Cmax in human CSF at 500 mg, po qd administered for 8 weeks
# Format: ADME, organism-based, Cerebrospinal fluid
# Design: time 8 weeks, dose 500 mg, route po
EXPERIMENTAL_READOUT: Cmax (µM)
// units = µM; emit number, no label

Record CN(C)C(=N)N=C(N)N [METFORMIN] , field Cmax: 0.741
